Source: patent US20110201629A1

This listing pairs compounds with measured pIC50.
# Measured On: CRF-1 (UniProt P34998)
# Method Summary: CRF-1 receptor antagonism, HTRF cAMP assay in CHO cells
# Type: cell-based, human
# Settings: Biological data Table 1; inhibition of CRF induced cAMP response in CHO cells, EC50 concentration of CRF
# From the text: The CRF-1 and CRF-2 receptor antagonistic activity of the agents of the invention has been determined in vitro in the following assay: […]
pIC50: −log10 of the molar value.

>  <Mol Smiles>
O=C(N[C@H]1CC[C@H](CN2C(=O)C(F)(F)c3ccc(Cl)cc32)CC1)c1cc(C(F)(F)F)ccc1Cl

>  <Measured On>
CRF-1 (UniProt P34998)

>  <pIC50>
6.83

$$$$
>  <Mol Smiles>
Cn1c(=O)n(C[C@H]2CC[C@H](NC(=O)c3cc(C(F)(F)F)ccc3Cl)CC2)c2ncccc21

>  <Measured On>
CRF-1 (UniProt P34998)

>  <pIC50>
6.84

$$$$
>  <Mol Smiles>
CC1(C)C(=O)N(C[C@H]2CC[C@H](NC(=O)c3cc(Cl)ccc3Cl)CC2)c2ccccc21

>  <Measured On>
CRF-1 (UniProt P34998)

>  <pIC50>
6.90

$$$$
>  <Mol Smiles>
Cc1ncc(Cl)cc1C(=O)N[C@H]1CC[C@H](Cn2c(=O)n(C)c3nccc(C)c32)CC1

>  <Measured On>
CRF-1 (UniProt P34998)

>  <pIC50>
6.38

$$$$
>  <Mol Smiles>
COc1ccc2c(c1)C(C)(C)C(=O)N2C[C@H]1CC[C@H](NC(=O)c2cc(C(F)(F)F)ccc2Cl)CC1

>  <Measured On>
CRF-1 (UniProt P34998)

>  <pIC50>
6.78

$$$$
>  <Mol Smiles>
CC1(C)C(=O)N(C[C@H]2CC[C@H](NC(=O)c3cc(C(F)(F)F)ccc3Cl)CC2)c2ccc(F)cc21

>  <Measured On>
CRF-1 (UniProt P34998)

>  <pIC50>
7.55

$$$$
>  <Mol Smiles>
Cn1c(=O)n(C[C@H]2CC[C@H](NC(=O)c3cc(C(F)(F)F)ccc3Cl)CC2)c2ccccc21

>  <Measured On>
CRF-1 (UniProt P34998)

>  <pIC50>
7.43

$$$$

====

compounds and their reported pIC50
# Measured On: CRF-1 (UniProt P34998)
# Method Summary: CRF-1 receptor antagonism, HTRF cAMP assay in CHO cells
# Type: cell-based, human
# Settings: Biological data Table 1; inhibition of CRF induced cAMP response in CHO cells, EC50 concentration of CRF
pIC50: −log10 of the molar value. Counter-ions that a name gives are not always drawn.

>  <Compound>
O=C(N[C@H]1CC[C@H](CN2C(=O)Cc3cccnc32)CC1)c1cc(C(F)(F)F)ccc1Cl

>  <pIC50>
6.05

$$$$
>  <Compound>
Cn1c(=O)n(C[C@H]2CC[C@H](NC(=O)c3cc(Cl)ccc3Cl)CC2)c2ccccc21 [Example 4.2, trifluoroacetate]

>  <pIC50>
6.93

$$$$
>  <Compound>
O=C(N[C@H]1CC[C@H](CN2C(=O)Cc3ccc(Cl)cc32)CC1)c1cc(C(F)(F)F)ccc1Cl

>  <pIC50>
7.19

$$$$
>  <Compound>
O=C(N[C@H]1CC[C@H](CN2C(=O)Cc3cc(Cl)ccc32)CC1)c1cc(C(F)(F)F)ccc1Cl

>  <pIC50>
6.69

$$$$
>  <Compound>
COc1cc2c(cn1)C(C)(C)C(=O)N2C[C@H]1CC[C@H](NC(=O)c2cc(C(F)(F)F)ccc2Cl)CC1

>  <pIC50>
6.46

$$$$
>  <Compound>
C[C@]1(F)C(=O)N(C[C@H]2CC[C@H](NC(=O)c3cc(C(F)(F)F)ccc3Cl)CC2)c2ccccc21

>  <pIC50>
7.80

$$$$
>  <Compound>
Cc1ncc(Cl)cc1C(=O)N[C@H]1CC[C@H](CN2C(=O)C(C)(C)c3cccnc32)CC1

>  <pIC50>
6.62

$$$$
